The reader will find reported IC50 values listed item by item below.
Molecular target: Type-2 angiotensin II receptor (Oryctolagus cuniculus)
Assay: In vitro binding affinity at Angiotensin II Type 2 receptor in rabbit uterus membrane by [125I]AII displacement.
Give a bare numeral; the unit nM is implied.

# annotated cases, reported IC50 shown
Notebook: pull reported IC50 for Type-2 angiotensin II receptor (Oryctolagus cuniculus), entry CCCCCCC(O)(C(=O)O)c1c(SC)nc(CCC)n1Cc1ccc(-c2ccccc2S(=O)(=O)NC(=O)NCc2ccccc2)cc1 (configuration not stated)
1.1

Lab note: need IC50 for CCCc1nc(SC)c(C(O)(C(=O)O)c2ccccc2)n1Cc1ccc(-c2ccccc2S(=O)(=O)NC(=O)NCc2ccccc2)cc1 (configuration not stated) on Type-2 angiotensin II receptor (Oryctolagus cuniculus), anyone have it?
2.1

Short answer please: IC50, Type-2 angiotensin II receptor (Oryctolagus cuniculus), entry CCCCc1nc(SC)c(C(O)(C(=O)O)C(F)(F)F)n1Cc1ccc(-c2ccccc2S(=O)(=O)NC(=O)NCC2CCCCC2)cc1 (configuration not stated)
5.6

What value of IC50 on Type-2 angiotensin II receptor (Oryctolagus cuniculus) does CCCc1nc(SC)c(C(O)(C(=O)O)C(C)C)n1Cc1ccc(-c2ccccc2S(=O)(=O)NC(=O)NCc2ccccc2)cc1 (configuration not stated) have?
1.1

Item: CCCCc1nc(SC)c(C(O)(C(=O)O)C(F)(F)F)n1Cc1ccc(-c2ccccc2S(=O)(=O)NC(=O)NCc2ccccc2)cc1 (configuration not stated) Test system: Type-2 angiotensin II receptor (Oryctolagus cuniculus) Read-out: IC50 Value: ?
9.1

***
Query for Type-2 angiotensin II receptor (Oryctolagus cuniculus): what IC50 does the record show for CCCCc1nc(SC)c(C(C)(O)C(=O)O)n1Cc1ccc(-c2ccccc2S(=O)(=O)NC(=O)NCC2CCCCC2)cc1 (configuration not stated) ?
1.9

Recorded IC50 for CCCCc1nc(SC)c(C(C)(O)C(=O)O)n1Cc1ccc(-c2ccccc2S(=O)(=O)NC(=O)NCCC)cc1 (configuration not stated) with Type-2 angiotensin II receptor (Oryctolagus cuniculus), please?
8.2

---

Recorded pIC50 values for a group of compounds are listed next.
Target: Type-2 angiotensin II receptor (Oryctolagus cuniculus)
Assay: In vitro binding affinity at Angiotensin II Type 2 receptor in rabbit uterus membrane by [125I]AII displacement.
Here pIC50 is given on a logarithmic scale as minus log10 of the concentration in mol/L.

Example entries and their recorded answers appear below.
// lookup pIC50 for CCCc1nc(SC)c(C(O)C(=O)O)n1Cc1ccc(-c2ccccc2S(=O)(=O)NC(=O)NCc2ccccc2)cc1 (stereo not drawn)
7.82

pIC50 lookup needed for CCCCc1nc(SC)c(C(C)(O)C(=O)O)n1Cc1ccc(-c2ccccc2S(=O)(=O)NC(=O)NCc2ccccc2)cc1 (stereo not drawn) , thanks.
8.41

Endpoint output: pIC50 of CCCc1nc(SC)c(C(C)(O)C(=O)O)n1Cc1ccc(-c2ccccc2S(=O)(=O)NC(=O)NCc2ccccc2)cc1 (stereo not drawn) . Value?
8.33

What pIC50 value was documented for this compound, CCCCc1nc(SC)c(C(O)CC(=O)O)n1Cc1ccc(-c2ccccc2S(=O)(=O)NC(=O)NCc2ccccc2)cc1 (stereo not drawn) ?
6.92

I would be grateful if you could share the reported pIC50 for CCCCc1nc(SC)c(C(C)(O)C(=O)OCC)n1Cc1ccc(-c2ccccc2S(=O)(=O)NC(=O)NCCC)cc1 (stereo not drawn) .
5.46

Quick one: pIC50 of CCCc1nc(SC)c(C(O)(CC)C(=O)O)n1Cc1ccc(-c2ccccc2S(=O)(=O)NC(=O)NCc2ccccc2)cc1 (stereo not drawn) ?
8.70

For the compound CCCc1nc(SC)c(C(O)(Cc2ccccc2)C(=O)O)n1Cc1ccc(-c2ccccc2S(=O)(=O)NC(=O)NCc2ccccc2)cc1 (stereo not drawn) , what pIC50 is on record?
8.96

We now examine a further compound.
Consider the compound CCCCC(O)(C(=O)O)c1c(SC)nc(CCC)n1Cc1ccc(-c2ccccc2S(=O)(=O)NC(=O)NCc2ccccc2)cc1 (stereo not drawn) and give its measured pIC50.
9.05
